target_entity: TEC (Homo sapiens)
Sequence (P42680 whole entry): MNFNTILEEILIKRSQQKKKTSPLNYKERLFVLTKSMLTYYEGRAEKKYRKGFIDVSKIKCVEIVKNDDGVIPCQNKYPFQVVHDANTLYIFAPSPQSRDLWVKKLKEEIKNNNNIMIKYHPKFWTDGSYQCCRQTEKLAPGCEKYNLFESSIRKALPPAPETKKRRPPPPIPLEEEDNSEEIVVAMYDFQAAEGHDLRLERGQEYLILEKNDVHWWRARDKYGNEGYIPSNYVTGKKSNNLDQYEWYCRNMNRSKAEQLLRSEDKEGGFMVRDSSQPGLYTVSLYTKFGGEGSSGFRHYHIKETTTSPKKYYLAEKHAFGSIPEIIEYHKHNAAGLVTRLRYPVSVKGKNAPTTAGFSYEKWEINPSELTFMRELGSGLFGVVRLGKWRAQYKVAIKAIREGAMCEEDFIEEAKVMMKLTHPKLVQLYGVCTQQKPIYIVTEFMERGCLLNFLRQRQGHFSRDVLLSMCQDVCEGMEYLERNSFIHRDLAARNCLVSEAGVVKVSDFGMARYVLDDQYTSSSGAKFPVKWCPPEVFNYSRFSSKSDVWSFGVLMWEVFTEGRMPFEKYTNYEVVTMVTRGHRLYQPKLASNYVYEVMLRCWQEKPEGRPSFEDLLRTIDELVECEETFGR
measurement_description: Inhibition of a panel of kinases (in vitro HotSpot kinase assay, 33P-ATP, 1 μM ATP)
Assay type: biochemical
conditions: ratio of TEC IC50 to Btk IC50 (selectivity)
Recorded TEC/Btk determines the label; the label ranges are band A: < 200; band B: ≥ 200 and < 700; band C: ≥ 700

Exam item: Hi, small favor: classify CC(C)(C)c1noc(C(=O)NCc2ccc(-c3ccnc4[nH]nc(N[C@@H]5CCNC5)c34)cc2F)n1 by its TEC/Btk when you get a moment.
Marked response: band B

Exam item: Hi, small favor: classify CC#CC(=O)N1CC[C@@H](Nc2n[nH]c3nccc(-c4ccc(CNC(=O)c5cc(C(C)(C)C)on5)c(F)c4)c23)C1 by its TEC/Btk when you get a moment.
Marked response: band B

Exam item: Hi, small favor: classify C=CC(=O)N1CCC(c2n[nH]c3nccc(-c4ccc(CNC(=O)c5noc(C(C)(C)C)n5)c(F)c4)c23)C1 (centres unmarked) by its TEC/Btk when you get a moment.
Marked response: band A

Exam item: Hi, small favor: classify C=CC(=O)N1CC[C@@H](Nc2n[nH]c3nccc(-c4ccc(CNC(=O)c5cccc(C(C)(C)C)c5)c(F)c4)c23)C1 by its TEC/Btk when you get a moment.
Marked response: band A

Exam item: Hi, small favor: classify CC(C)(C)c1nc(C(=O)NCc2ccc(-c3ccnc4[nH]nc(O[C@@H]5CCN(C=O)C5)c34)cc2F)no1 by its TEC/Btk when you get a moment.
Marked response: band B

Exam item: Hi, small favor: classify C=CC(=O)N1CC[C@@H](Oc2n[nH]c3nccc(-c4ccc(CNC(=O)c5noc(C(C)(C)C)n5)c(F)c4)c23)C1 by its TEC/Btk when you get a moment.
Marked response: band B

Exam item: Hi, small favor: classify CC(C)(C)c1ccc(C(=O)NCc2ccc(-c3ccnc4[nH]nc(N[C@H]5CCN(C=O)C5)c34)cc2F)cc1 by its TEC/Btk when you get a moment.
Marked response: band A

Exam item: Hi, small favor: classify C[C@@H](NC(=O)c1nc(C(C)(C)C)no1)c1ccc(-c2ccnc3[nH]nc(N[C@@H]4CC[C@H](C)N(C(=O)N(C)C)C4)c23)cc1F by its TEC/Btk when you get a moment.
Marked response: band C

Exam item: Hi, small favor: classify C[C@H]1CC[C@@H](Nc2n[nH]c3nccc(-c4ccc(CNC(=O)c5nc(C(C)(C)C)no5)c(F)c4)c23)CN1C(=O)n1ccnc1 by its TEC/Btk when you get a moment.
Marked response: band C

Exam item: Hi, small favor: classify C[C@@H](NC(=O)c1nc(C(C)(C)C)no1)c1ccc(-c2ccnc3[nH]nc(N4CCOCC4)c23)cc1 by its TEC/Btk when you get a moment.
Marked response: band C

Exam item: Hi, small favor: classify CN(C)C(=O)N1CC[C@@H](Nc2n[nH]c3nccc(-c4ccc(CNC(=O)c5nc(C(C)(C)C)no5)c(F)c4)c23)C1 by its TEC/Btk when you get a moment.
Marked response: band C

Exam item: Hi, small favor: classify C=CC(=O)N1CC[C@@H](Nc2n[nH]c3nccc(-c4ccc(C5(NC(=O)c6nc(C(C)(C)C)no6)CC5)cc4)c23)C1 by its TEC/Btk when you get a moment.
Marked response: band C

Exam item: Hi, small favor: classify CN(C)C/C=C/C(=O)N1CC[C@@H](Nc2n[nH]c3nccc(-c4ccc(C5(NC(=O)c6noc(C(C)(C)C)n6)CC5)cc4)c23)C1 by its TEC/Btk when you get a moment.
Marked response: band A

Exam item: Hi, small favor: classify CC(C)(C)c1ccc(C(=O)NCc2ccc(-c3ccnc4[nH]nc(N5CC[C@@H](N)C5)c34)cc2F)cc1 by its TEC/Btk when you get a moment.
Marked response: band B

Exam item: Hi, small favor: classify C[C@@H]1[C@H](Nc2n[nH]c3nccc(-c4ccc(CNC(=O)c5noc(C(C)(C)C)n5)c(F)c4)c23)CCCN1C(=O)CC#N by its TEC/Btk when you get a moment.
Marked response: band A

Exam item: Hi, small favor: classify CC#CC(=O)N1CC[C@@H](Nc2n[nH]c3nccc(-c4ccc(CNC(=O)c5ccc(OC)cc5)c(F)c4)c23)C1 by its TEC/Btk when you get a moment.
Marked response: band A

Exam item: Hi, small favor: classify CC(C)(C)c1nc(C(=O)NCc2ccc(-c3ccnc4[nH]nc(N[C@@H]5CCCN(C=O)C5)c34)cc2F)no1 by its TEC/Btk when you get a moment.
Marked response: band B

Exam item: Hi, small favor: classify C[C@@H](NC(=O)c1nc(C(C)(C)C)no1)c1ccc(-c2ccnc3[nH]nc(N4CCNCC4)c23)cc1 by its TEC/Btk when you get a moment.
Marked response: band C

Exam item: Hi, small favor: classify CC1(C(=O)N2CC[C@@H](Nc3n[nH]c4nccc(-c5ccc(CNC(=O)c6ccc(C7CC7)cc6)c(F)c5)c34)C2)COC1 by its TEC/Btk when you get a moment.
Marked response: band A

----------
Target protein (sequence): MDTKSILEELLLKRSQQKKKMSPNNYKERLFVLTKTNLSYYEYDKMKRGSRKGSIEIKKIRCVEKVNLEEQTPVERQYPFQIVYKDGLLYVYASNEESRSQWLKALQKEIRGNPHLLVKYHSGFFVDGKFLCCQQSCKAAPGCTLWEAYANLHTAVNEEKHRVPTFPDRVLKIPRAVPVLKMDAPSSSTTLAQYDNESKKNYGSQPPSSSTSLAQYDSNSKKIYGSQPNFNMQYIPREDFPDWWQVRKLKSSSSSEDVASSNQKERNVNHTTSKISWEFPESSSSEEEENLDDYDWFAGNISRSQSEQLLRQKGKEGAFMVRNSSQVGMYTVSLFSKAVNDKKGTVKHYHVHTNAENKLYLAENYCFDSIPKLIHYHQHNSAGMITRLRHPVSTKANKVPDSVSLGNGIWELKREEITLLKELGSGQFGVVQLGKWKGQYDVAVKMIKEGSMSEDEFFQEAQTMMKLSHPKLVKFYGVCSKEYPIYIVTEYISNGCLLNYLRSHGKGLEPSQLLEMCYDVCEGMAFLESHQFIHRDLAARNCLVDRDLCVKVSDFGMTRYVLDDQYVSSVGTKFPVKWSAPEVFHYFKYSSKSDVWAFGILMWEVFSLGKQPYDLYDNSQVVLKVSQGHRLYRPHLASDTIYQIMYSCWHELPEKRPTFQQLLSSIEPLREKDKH
Assignment: determine reported pIC50 for the given molecules.
# pIC50 is unitless: minus log10 of the molar concentration; print number only

Exam item: Quick one: pIC50 for C[C@H]1CC[C@@H](Nc2n[nH]c3nccc(-c4ccc(CNC(=O)c5noc(C(C)(C)C)n5)c(F)c4)c23)CN1C(=O)CO ?
Marked response: 6.15

Exam item: Quick one: pIC50 for C[C@@H]1[C@H](Nc2n[nH]c3nccc(-c4ccc(CNC(=O)c5noc(C(C)(C)C)n5)c(F)c4)c23)CCCN1C(=O)C1CC1 ?
Marked response: 5.26

Exam item: Quick one: pIC50 for CN(C)C(=O)N1CC[C@H](Nc2n[nH]c3nccc(-c4ccc(CNC(=O)c5noc(C(C)(C)C)n5)c(F)c4)c23)C1 ?
Marked response: 6.55

Exam item: Quick one: pIC50 for C=CC(=O)N1CCC[C@@H](Nc2n[nH]c3nccc(-c4ccc(CNC(=O)c5cc(CC)on5)c(F)c4)c23)[C@H]1C ?
Marked response: 8.34

Exam item: Quick one: pIC50 for C[C@H]1CC[C@@H](Nc2n[nH]c3nccc(-c4ccc(CNC(=O)c5noc(C(C)(C)C)n5)c(F)c4)c23)CN1C(=O)N(C)C ?
Marked response: 6.86

Exam item: Quick one: pIC50 for C=CC(=O)N1C[C@H](Nc2n[nH]c3nccc(-c4ccc(CNC(=O)c5cc(C(C)(C)C)on5)c(F)c4)c23)CC[C@@H]1C ?
Marked response: 7.68

Exam item: Quick one: pIC50 for CN(Cc1ccc(-c2ccnc3[nH]nc(N4CC[C@@H](N)C4)c23)cc1F)C(=O)c1nc(C(C)(C)C)no1 ?
Marked response: 5.72

Exam item: Quick one: pIC50 for C[C@H]1CC[C@@H](Nc2n[nH]c3nccc(-c4ccc(CNC(=O)c5nc(C(C)(C)C)no5)c(F)c4)c23)CN1 ?
Marked response: 5.26

Exam item: Quick one: pIC50 for C=CC(=O)N[C@@H]1CCN(c2n[nH]c3nccc(-c4ccc(CNC(=O)c5ccc(C(C)(C)C)cc5)c(F)c4)c23)C1 ?
Marked response: 6.91

Exam item: Quick one: pIC50 for C=CC(=O)N1CCC[C@@H](Nc2n[nH]c3nccc(-c4ccc(C5(NC(=O)c6noc(C(C)(C)C)n6)CC5)c(F)c4)c23)C1 ?
Marked response: 6.95
